experiment: chemical genetic growth profiling, strain panel (AID 1159580);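 also: tested at 20 µM; growth read once vehicle control cultures reached saturation at 30 °C; 1 = growth at the plate median or of vehicle wells; lower values mean less growth of the strain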; conditions: S. cerevisiae deletion strains, growth OD, locus YDR334W, strain swr1, hits give low values
The whole screen tested about 5,500 compounds, of which about 2,000 (36%) were called active. Roughly 18% stayed inconclusive and do not appear here. The list shows a part of the results.
VALUE_KIND: normalized growth
One number for each entry.

Observe how each entry below is paired with its result.
{"COMPOUND": "CC(C)C[C@@H](CN)CC(=O)O", "normalized growth": 1.02}
{"COMPOUND": "O=P1(NCCCl)OCCCN1CCCl (stereo unspecified)", "normalized growth": 0.969}
{"COMPOUND": "CN(C)CCCN1c2ccccc2Sc2ccccc21", "normalized growth": 0.95}
{"COMPOUND": "CC(=O)N[C@@H](Cc1c[nH]c2ccccc12)C(N)=O", "normalized growth": 1.01}
{"COMPOUND": "CC(C)=CCc1c2c(c3occ(-c4ccc(O)cc4)c(=O)c3c1O)C=CC(C)(C)O2", "normalized growth": 0.92}

// next item, normalized growth requested
Q) What value of normalized growth has been reported for the following compound? CC1=CCCC2C1(C)CCC(C)C2(C)CC/C(C)=C/C[n+]1cn(C)c2c(N)ncnc21 (stereo unspecified)
A) 0.988
